Experiment: growth suppression of yeast trafficking mutant, preliminary HTS, modulators of trafficking downstream of Golgi apparatus project, 1536-format plate, OD 615 nm (AID 637)
Condition Context: yeast transport mutant growth, absorbance 615 nm, 18 h; stronger effect = higher value
Reported inhibition is given for each of the following compounds.
Write it as a number; the unit % goes unstated.

Name the recorded inhibition of the compound listed here: O=C1CN=C(Nc2cccc(C(F)(F)F)c2)N1C1CCCC1
-1.8

Name the recorded inhibition of the compound listed here: CCCCCc1c(O)nc(SCC(=O)NCC2CCCO2)[nH]c1=O (stereo unspecified)
-3.81

Name the recorded inhibition of the compound listed here: Cc1cnc(C(=O)OCC(=O)Nc2ccc(Cl)cc2Cl)cn1
2.38

Name the recorded inhibition of the compound listed here: COc1ccc(CN(C(=O)CNC(=O)c2ccco2)C(C(=O)NC2CCCC2)c2ccco2)cc1 (stereo unspecified)
-5.48

Name the recorded inhibition of the compound listed here: Cc1ccc(S(=O)(=O)NC(=O)c2cc(C)n(CCCn3ccnc3)c2C)cc1
0.82

Name the recorded inhibition of the compound listed here: COc1cccc(NC(=O)N[C@@H](Cc2ccccc2)C(=O)O)c1
2.06

Name the recorded inhibition of the compound listed here: c1ccc(Nc2ccccc2Nc2ccccn2)nc1
5.08

Name the recorded inhibition of the compound listed here: NC(=O)COC(=O)CNC(=O)c1ccc(Cl)cc1
-0.81

Name the recorded inhibition of the compound listed here: O=C(CSCc1cnn(-c2ccccc2)c1-n1cccc1)NCC1CCCO1 (stereo unspecified)
-2.7

Name the recorded inhibition of the compound listed here: Cc1ccc(Br)cc1S(=O)(=O)N1CCN(c2ccccc2)CC1
-8.5

Name the recorded inhibition of the compound listed here: Cn1c(CCNC(=O)c2ccco2)nc2cc(NC(=O)C3CCCCC3)ccc21
-1.59

* * *

Experiment: 384-well plate pilot, post-Golgi transport modulator project, inhibition of yeast transport mutant growth (AID 636)
Condition Context: absorbance 615 nm, about 18 h, stronger effect = higher value
Parameter Measured: inhibition (%)
Write it as a number; the unit % goes unstated.

| Compound | inhibition / % |
| --- | --- |
| O=C(c1ccc2c(c1)c(=O)oc1ccccc12)N1CCCCC1 | -2.11 |
| CC(Oc1ccccc1)C(=O)N1CCCc2ccccc21 (stereo not drawn) | -1.76 |
| Cn1c(=O)[nH]c(=O)c2c1nc(N(CCO)Cc1ccccc1)n2Cc1ccccc1Cl | -5.47 |

Name the recorded inhibition of the compound listed here: C=C(Cl)COC(=O)[C@H]1C2C=CC(C2)C1C(=O)O (stereo partly drawn)
-2.8

Name the recorded inhibition of the compound listed here: COc1ccc(S(=O)(=O)N2CCCC(C(=O)N3CCCCCC3)C2)cc1 (stereo not drawn)
-5

Name the recorded inhibition of the compound listed here: CCOC(=O)Cn1c(S(=O)(=O)Cc2ccccc2)nc2ccccc21
-0.13

Name the recorded inhibition of the compound listed here: C=CCOC(=O)CCC(=O)Nc1cc(OC)nc(OC)n1
-3.07

Name the recorded inhibition of the compound listed here: COc1ccc(C(=O)CSc2nnc(C3CCCCC3)n2N)c(OC)c1
-4

* * *

Experiment: SK-BR-3 cell growth inhibitors, pilot screen, 24 h, human (AID 572);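 note: compound exposure lasted between 18 and 24 h rather than exactly 24 h; 100% = carrier-treated control wells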
Condition Context: SK-BR-3 viability, CellTiter-Glo luminescence, at 10 µM, stronger effect = lower value
Parameter Measured: viability (%)
Write it as a number; the unit % goes unstated.

These recorded examples may help you get a feel for the data.
| Molecule | Unit Abbrev | Quantitative Readout |
| --- | --- | --- |
| COc1ccccc1Nc1nc(N)nc(CN2CCN(c3ccccc3F)CC2)n1 | % | 96 |
| Cc1nc2scc(-c3cccs3)c2c(=O)n1-n1cccc1 | % | 92 |
| O=C(O)c1cc2c([nH]c1=O)CCCC2 | % | 93.5 |
| O=C(CSCc1cnn(-c2ccccc2)c1-n1cccc1)NCC1CCCO1 (stereo unspecified) | % | 97.5 |
| COCCN(CC(=O)NCc1ccccc1)C(=O)CCC(=O)Nc1ccccn1 | % | 112 |

Name the recorded viability of the molecule listed here: Cc1cc(C)c2c(n1)sc1c(N3CCOCC3)ncnc12
91

Name the recorded viability of the molecule listed here: Cc1nnc2ccc(N3CCN(c4cccc(C(F)(F)F)c4)CC3)nn12
97.5

Name the recorded viability of the molecule listed here: COc1ccc(-c2nc(C#N)c(N3CCOCC3)o2)cc1OC
111

Name the recorded viability of the molecule listed here: COc1cccc(CNC(=O)CCn2c(=O)oc3ccccc32)c1
77.5

Name the recorded viability of the molecule listed here: COc1ccc(N2CCN(Cc3nc4c(c(=O)[nH]c(=O)n4C)n3CC(C)=O)CC2)cc1
98.5

Name the recorded viability of the molecule listed here: CCOC(=O)C(NC(=O)c1ccccc1)(Nc1cc(C)on1)C(F)(F)F (stereo unspecified)
106

* * *

Experiment: reversal of MRP1-mediated doxorubicin resistance, pilot screen, H69AR cells, doxorubicin co-treatment (AID 601)
Condition Context: H69AR cells, CellTiter-Glo, 72 h; compound alone cytotoxicity; at 10 µM
Reported viability is given for each of the following compounds.
Write it as a number; the unit % goes unstated.

These recorded examples may help you get a feel for the data.
| Compound | Unit Abbrev | Quantitative Readout |
| --- | --- | --- |
| CCSc1nc2ccccc2n1CC(N)=O | % | 88.8 |
| O=C(O)Cn1cc2c(n1)CCCC2 | % | 98 |
| O=C(CCCc1cccs1)Nc1nc2c(s1)CCCC2 | % | 84.5 |
| CCOc1ccccc1-n1c(SCC(=O)NCc2ccco2)nnc1-c1ccncc1 | % | 75.6 |
| CCN(C(=O)CCc1nc(-c2ccccc2F)no1)c1cc(OC)ccc1OC | % | 92.4 |
| CC(=O)C1=C(O)C(=O)N(Cc2ccco2)C1c1ccc(F)cc1 (stereo unspecified) | % | 109 |
| COc1ccccc1NC(=O)CSC1CC(=O)N(c2ccc3c(c2)OCO3)C1=O (stereo unspecified) | % | 99.4 |
| O=C(C1CC1)N1CCC(c2nc(-c3ccc(S(=O)(=O)NCC4CCCO4)cc3)no2)CC1 (stereo unspecified) | % | 90.6 |
| CN1CCN(S(=O)(=O)c2ccc(Sc3nnc(-c4cccs4)n3-c3ccccc3)nc2)CC1 | % | 85.7 |
| O=C(CCSc1ccccc1)N1CCN(C(=O)c2ccco2)CC1 | % | 95.1 |

Then this compound:
Name the recorded viability of the compound listed here: O=C(C1CCCO1)N1CCN(Cc2nc3ccccc3c(=O)[nH]2)CC1 (stereo unspecified)
94.9

* * *

Experiment: reversal of MRP1-mediated doxorubicin resistance, pilot screen, H69AR cells, doxorubicin co-treatment (AID 601)
Condition Context: H69AR cells + 2 uM doxorubicin, CellTiter-Glo, 72 h; at 10 µM; stronger effect = higher value
Parameter Measured: differential viability (reversal) (%)
Write it as a number; the unit % goes unstated.

| Molecule | Unit Abbrev | differential viability (reversal) |
| --- | --- | --- |
| O=C(Nc1ccc2c(c1)OCO2)c1cc2ncc(Br)cn2n1 | % | -17.3 |
| CC(=O)C1=C(O)C(=O)N(Cc2ccco2)C1c1ccc2c(c1)OCO2 (stereo unspecified) | % | 7.12 |
| O=C(CN1CCC(n2nnc3cc(F)ccc32)CC1)Nc1ccc2c(c1)CCC2 | % | -5.55 |
| CC(=O)c1c(C)oc2ccc(NS(=O)(=O)c3ccc(O)c(C(=O)O)c3)cc12 | % | 3.09 |
| COCc1ccccc1Cn1cnc2c1c(=O)n(C)c(=O)n2C | % | 8.8 |

Then this molecule:
Name the recorded differential viability (reversal) of the molecule listed here: Cc1ccc(S(=O)(=O)Nc2cc(C(=O)O)ccc2N2CCCCC2)cc1
-1.99

* * *

Reported viability is given for each of the following compounds.
Experiment: HUVEC growth inhibition – cell-based, human, primary screen (AID 575);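 note: 100% = median of untreated cell wells with 0.1% DMSO on each plate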
Condition Context: HUVEC proliferation, CellTiter-Glo luminescence, 72 h; at 10 µM; stronger effect = lower value
Write it as a number; the unit % goes unstated.

These recorded examples may help you get a feel for the data.
| Compound | Quantitative Readout |
| --- | --- |
| O=c1oc2ccccc2n1CCc1ccccc1 | 84.6 |
| COc1ccc2nc(NC(=O)C(NS(=O)(=O)c3cccs3)C(C)C)sc2c1 (centres undefined) | 70.7 |
| CS(=O)(=O)N1CCN(CC2CC3C=CC2C3)CC1 (centres undefined) | 111 |

Then this compound:
Name the recorded viability of the compound listed here: O=C(CCC(=O)N(c1cccc(F)c1)C(C(=O)NC1CCCC1)c1ccncc1)Nc1cccnc1 (centres undefined)
97.1

* * *

Experiment: reversal of MRP1-mediated doxorubicin resistance, pilot screen, H69AR cells, doxorubicin co-treatment (AID 601)
Condition Context: H69AR cells, CellTiter-Glo, 72 h; compound alone cytotoxicity; at 10 µM
1 if viability is below 70%. -1 if not; exact matches included in -1.

Worked cases, answers included:
| Compound | Assigned Class |
| --- | --- |
| CC(C)CCN1CC(C(=O)NCc2ccccc2)CC1=O (stereo unspecified) | -1 |
| Cc1ccc(S(=O)(=O)N(CCO)c2cc3c(s2)CCCC3)cc1 | -1 |

Threshold test, viability < 70%: Cc1ccc(-n2c(=O)[nH]c3c(C(N)=O)nc(CC(C)C)nc32)cc1
-1

Threshold test, viability < 70%: OCc1nc2ccccc2n1CC(O)Cn1ccc2ccccc21 (stereo unspecified)
-1

Threshold test, viability < 70%: COc1cccc(NC(=O)NC2(C(F)(F)F)Oc3ccccc3O2)c1
1

Threshold test, viability < 70%: COc1ccc(-c2cc(C(F)(F)F)nc(SCCC(=O)N3CCOCC3)n2)cc1
-1

These entries and their values trace back to PubChem BioAssay.
